- Tested on: leukocytes
- method-description: anoikis in anchorage-free culture, leukocytes
- Assay type: cell-based
- condition-summary: Leukocyte, read-out: IC50 value for anoikis (anchorage-free induced apoptosis)
The entries below are paired with their reported IC50.

compound-string: O=C(Nc1nc(CCN2C(=O)c3ccccc3C2=O)cs1)c1cc2ccccc2s1
target-of-assay: leukocytes
unit-string: µM
sign: =
IC50: 76

compound-string: O=C1c2ccccc2C(=O)N1CCc1csc(Nc2nc(CCN3C(=O)c4ccccc4C3=O)cs2)n1
target-of-assay: leukocytes
unit-string: µM
sign: >
IC50: 200

---

- System: lung cancer cells (Bm7brmx2-1st)
- method-description: cytotoxicity assay in Bm7brmx2-1st cells
- Type: cell-based

compound: O=C1c2ccccc2C(=O)N1CCc1csc(COc2cccc(C(F)(F)F)c2)n1 [12W-0232]
target-of-assay: lung cancer cells (Bm7brmx2-1st)
sign: >
IC50 / µM: 50
//
compound: CC(C)CN1CCCc2cc(/C=C(\C#N)c3nc(CCN4C(=O)c5ccccc5C4=O)cs3)ccc21
target-of-assay: lung cancer cells (Bm7brmx2-1st)
sign: =
IC50 / µM: 34.4
//
compound: N#C/C(=C\c1ccncc1)c1nc(CCN2C(=O)c3ccccc3C2=O)cs1
target-of-assay: lung cancer cells (Bm7brmx2-1st)
sign: =
IC50 / µM: 1420
//
compound: O=C1c2ccccc2C(=O)N1CCc1csc(Nc2ccc(Cl)c(Cl)c2)n1
target-of-assay: lung cancer cells (Bm7brmx2-1st)
sign: =
IC50 / µM: 37.6
//
compound: O=C1c2ccccc2C(=O)N1CCc1csc(-c2cccc(F)c2)n1 [12W-0275]
target-of-assay: lung cancer cells (Bm7brmx2-1st)
sign: =
IC50 / µM: 97
//
compound: O=C(Nc1nc(CCN2C(=O)c3ccccc3C2=O)cs1)c1cc2ccccc2s1
target-of-assay: lung cancer cells (Bm7brmx2-1st)
sign: =
IC50 / µM: 44.3
//
compound: N#C/C(=C/c1cc([N+](=O)O)ccc1Sc1ccccn1)c1nc(CCN2C(=O)c3ccccc3C2=O)cs1
target-of-assay: lung cancer cells (Bm7brmx2-1st)
sign: =
IC50 / µM: 56.2
//
compound: O=C1c2ccccc2C(=O)N1CCc1csc(Nc2nc(CCN3C(=O)c4ccccc4C3=O)cs2)n1
target-of-assay: lung cancer cells (Bm7brmx2-1st)
sign: =
IC50 / µM: 40.4

---

The entries below are paired with their reported IC50.
- System: breast cancer brain metastatic cell line-MDA-231 brm
- method-description: anoikis in anchorage-free culture, MDA-231brm
- Format: cell-based
- condition-summary: read-out: IC50 value for anoikis (anchorage-free induced apoptosis)
property: IC50 (µM)

compound-string: O=C(Nc1nc(CCN2C(=O)c3ccccc3C2=O)cs1)c1cc2ccccc2s1
property: IC50
unit-string: µM
recorded-measurement: 7.5
--
compound-string: O=C1c2ccccc2C(=O)N1CCc1csc(Nc2nc(CCN3C(=O)c4ccccc4C3=O)cs2)n1
property: IC50
unit-string: µM
recorded-measurement: 4.5

---

- Tested on: lung cancer cells (Bm7brmx2-2nd)
- method-description: cytotoxicity assay in Bm7brmx2-2nd cells
- Format: cell-based
pIC50: −log10 of the molar value.
The entries below are paired with their reported pIC50.

compound: N#C/C(=C/c1ccc(OCc2ccccc2)cc1)c1nc(CCN2C(=O)c3ccccc3C2=O)cs1
target-of-assay: lung cancer cells (Bm7brmx2-2nd)
pIC50: 3.51

compound: O=C(Nc1nc(CCN2C(=O)c3ccccc3C2=O)cs1)c1cc2ccccc2s1
target-of-assay: lung cancer cells (Bm7brmx2-2nd)
pIC50: 4.35

compound: N#C/C(=C\c1ccc(OCc2cccc(C(F)(F)F)c2)cc1)c1nc(CCN2C(=O)c3ccccc3C2=O)cs1
target-of-assay: lung cancer cells (Bm7brmx2-2nd)
pIC50: 3.60

compound: N#C/C(=C\C=C\c1ccccc1)c1nc(CCN2C(=O)c3ccccc3C2=O)cs1
target-of-assay: lung cancer cells (Bm7brmx2-2nd)
pIC50: 3.23

compound: N#C/C(=C\c1ccccc1Oc1ccc(Cl)cc1Cl)c1nc(CCN2C(=O)c3ccccc3C2=O)cs1
target-of-assay: lung cancer cells (Bm7brmx2-2nd)
pIC50: 3.31

compound: COc1ccc(OC)c(/C=N/Nc2nc(CCN3C(=O)c4ccccc4C3=O)cs2)c1
target-of-assay: lung cancer cells (Bm7brmx2-2nd)
pIC50: 3.57

compound: COc1ccc(C(=O)Nc2nc(CCN3C(=O)c4ccccc4C3=O)cs2)cc1OC
target-of-assay: lung cancer cells (Bm7brmx2-2nd)
pIC50: 4.04

compound: Cc1ccc(-c2nc(CCN3C(=O)c4ccccc4C3=O)cs2)cc1 [12W-0274]
target-of-assay: lung cancer cells (Bm7brmx2-2nd)
pIC50: 3.33

compound: N#C/C(=C/c1cccc(C(F)(F)F)c1)c1nc(CCN2C(=O)c3ccccc3C2=O)cs1
target-of-assay: lung cancer cells (Bm7brmx2-2nd)
pIC50: 3.36

compound: O=C1c2ccccc2C(=O)N1CCc1csc(-c2ccccn2)n1 [12W-0266]
target-of-assay: lung cancer cells (Bm7brmx2-2nd)
pIC50: 3.87

compound: O=C1c2ccccc2C(=O)N1CCc1csc(-c2cccc(F)c2)n1 [12W-0275]
target-of-assay: lung cancer cells (Bm7brmx2-2nd)
pIC50: 3.36

compound: CSc1ccc(/C=C(/C#N)c2nc(CCN3C(=O)c4ccccc4C3=O)cs2)cc1
target-of-assay: lung cancer cells (Bm7brmx2-2nd)
pIC50: 3.35

compound: N#C/C(=C\c1ccncc1)c1nc(CCN2C(=O)c3ccccc3C2=O)cs1
target-of-assay: lung cancer cells (Bm7brmx2-2nd)
pIC50: 1.80

compound: O=C1c2ccccc2C(=O)N1CCc1csc(Nc2ccc(Cl)c(Cl)c2)n1
target-of-assay: lung cancer cells (Bm7brmx2-2nd)
pIC50: 4.20

compound: O=C1c2ccccc2C(=O)N1CCc1csc(COc2cccc(C(F)(F)F)c2)n1 [12W-0232]
target-of-assay: lung cancer cells (Bm7brmx2-2nd)
pIC50: 4.11

compound: O=C1c2ccccc2C(=O)N1CCc1csc(-c2ccccc2)n1 [11W-0296]
target-of-assay: lung cancer cells (Bm7brmx2-2nd)
pIC50: 3.83

compound: O=C1c2ccccc2C(=O)N1CCc1csc(Nc2nc(CCN3C(=O)c4ccccc4C3=O)cs2)n1
target-of-assay: lung cancer cells (Bm7brmx2-2nd)
pIC50: 4.36

compound: N#C/C(=C\c1cccc2ccccc12)c1nc(CCN2C(=O)c3ccccc3C2=O)cs1
target-of-assay: lung cancer cells (Bm7brmx2-2nd)
pIC50: 3.41

compound: O=C1c2ccccc2C(=O)N1CCc1csc(-c2ccc(F)cc2)n1 [12W-0272]
target-of-assay: lung cancer cells (Bm7brmx2-2nd)
pIC50: 3.58

compound: O=C1c2ccccc2C(=O)N1CCc1csc(COc2ccccc2Cl)n1 [12W-0264]
target-of-assay: lung cancer cells (Bm7brmx2-2nd)
pIC50: 3.82

compound: N#C/C(=C/c1cc([N+](=O)O)ccc1Sc1ccccn1)c1nc(CCN2C(=O)c3ccccc3C2=O)cs1
target-of-assay: lung cancer cells (Bm7brmx2-2nd)
pIC50: 3.95

compound: CC(C)CN1CCCc2cc(/C=C(\C#N)c3nc(CCN4C(=O)c5ccccc5C4=O)cs3)ccc21
target-of-assay: lung cancer cells (Bm7brmx2-2nd)
pIC50: 4.06

compound: O=C(Nc1nc(CCN2C(=O)c3ccccc3C2=O)cs1)c1ccc([N+](=O)[O-])cc1
target-of-assay: lung cancer cells (Bm7brmx2-2nd)
pIC50: 2.90

compound: O=C1c2ccccc2C(=O)N1CCc1csc(-c2nc(CCN3C(=O)c4ccccc4C3=O)cs2)n1 [12W-0290]
target-of-assay: lung cancer cells (Bm7brmx2-2nd)
pIC50: 2.40
